- TARGET_OR_SYSTEM: T1, deglycosylated V domain of human CD33 (human, UniProt P20138 18-139, limits assumed, N-glycans removed by PNGase)
- T1 construct: V domain deglycosylated by PNGase before testing; also called deglycosylated V CD33
- ASSAY_PROTOCOL: SPR, Fab captured, 37C;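 also: biacore 8K surface plasmon resonance with Fabs held on an amine-coupled anti-Fab antibody surface, soluble monomeric CD33 domain injected as analyte, double-referenced 1:1 binding fit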
PARAMETER: koff (s⁻¹)
Just the number in s⁻¹, nothing appended.

Consider the reported koff for these binders:
| BINDER | UNIT_ABBREV | REPORTED_VALUE |
| --- | --- | --- |
| ADI-11826 Fab (Fab, V domains shown, Fab fragment; also called Ab26) VH: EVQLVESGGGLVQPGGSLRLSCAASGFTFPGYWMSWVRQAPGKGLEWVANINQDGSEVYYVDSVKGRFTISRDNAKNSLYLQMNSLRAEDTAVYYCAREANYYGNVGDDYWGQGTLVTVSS VL: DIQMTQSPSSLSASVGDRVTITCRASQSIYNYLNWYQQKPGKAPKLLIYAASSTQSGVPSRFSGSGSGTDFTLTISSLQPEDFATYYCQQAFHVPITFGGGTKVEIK | s⁻¹ | 0.0198 |
| ADI-10157 Fab (Fab, V domains shown, Fab fragment; also called Ab13) VH: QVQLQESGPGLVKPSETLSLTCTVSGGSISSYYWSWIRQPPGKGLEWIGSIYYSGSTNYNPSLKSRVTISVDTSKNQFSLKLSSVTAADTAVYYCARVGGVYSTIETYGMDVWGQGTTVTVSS VL: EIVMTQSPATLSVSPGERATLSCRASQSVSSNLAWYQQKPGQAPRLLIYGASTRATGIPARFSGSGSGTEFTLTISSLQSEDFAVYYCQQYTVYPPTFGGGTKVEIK | s⁻¹ | 0.0261 |
| ADI-10164 Fab (Fab, V domains shown, Fab fragment; also called Ab18) VH: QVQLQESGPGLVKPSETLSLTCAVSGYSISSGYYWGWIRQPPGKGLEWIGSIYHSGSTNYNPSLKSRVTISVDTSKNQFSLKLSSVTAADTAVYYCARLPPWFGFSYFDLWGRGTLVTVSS VL: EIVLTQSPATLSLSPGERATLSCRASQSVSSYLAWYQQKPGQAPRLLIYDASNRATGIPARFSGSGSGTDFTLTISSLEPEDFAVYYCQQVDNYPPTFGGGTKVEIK | s⁻¹ | 0.116 |

Sample ADI-11776 Fab (Fab, V domains shown, Fab fragment; also called Ab3; H76) VH: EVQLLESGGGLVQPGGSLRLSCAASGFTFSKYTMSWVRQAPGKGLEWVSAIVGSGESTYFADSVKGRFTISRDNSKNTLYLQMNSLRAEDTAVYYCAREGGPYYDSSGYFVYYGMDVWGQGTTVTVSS VL: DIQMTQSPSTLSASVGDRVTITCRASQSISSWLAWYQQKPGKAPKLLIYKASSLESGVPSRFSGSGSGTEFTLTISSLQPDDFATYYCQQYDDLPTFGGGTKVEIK ; koff observed: 0.00136

Sample ADI-10161 Fab (Fab, V domains shown, Fab fragment; also called Ab16) VH: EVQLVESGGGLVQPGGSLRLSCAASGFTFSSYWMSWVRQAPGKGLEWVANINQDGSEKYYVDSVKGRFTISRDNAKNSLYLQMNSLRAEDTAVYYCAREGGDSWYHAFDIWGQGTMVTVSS VL: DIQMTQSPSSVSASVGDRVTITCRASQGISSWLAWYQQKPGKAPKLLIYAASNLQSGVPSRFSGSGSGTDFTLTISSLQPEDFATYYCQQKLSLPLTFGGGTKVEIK ; koff observed: 0.196
